Control of weed species, AVEFA (damage score) reference
Tested on: Avena fatua (AVEFA)
METHOD: Post-emergence herbicidal activity
Type: in vivo
RUN PARAMETERS: post-emergence application, 1000 g/Ha, evaluated after 13 days, scale 0-5
EXPERIMENTAL ENDPOINT: Control of weed species, AVEFA (damage score)

{"SMILES": "Cc1nc(-c2cncc(Cl)c2)sc1N(C)C(=O)OC(C)(C)C", "VALUE REPORTED": 5}
{"SMILES": "Cc1nc(-c2cncc(N)c2)sc1N(C)C(=O)OC(C)(C)C", "VALUE REPORTED": 1}
{"SMILES": "CCN(C(=O)OC(C)(C)C)c1sc(-c2cccnc2)nc1C", "VALUE REPORTED": 4}
